test-system: NMDA receptor
assay-notes: Radioligand binding: displacement of [3H]MK-801 from rat forebrain membranes
run-parameters: [3H]MK-801 binding, text to Figure 2; read-out: mean IC50
pIC50: −log10 of the molar value.
readout-name: pIC50

# molecule, result-qualifier, measured-number
measured = [
    ("CCCCCCC(C)(C)c1cc(O)c2c(c1)OC(C)(C)[C@H]1CC=C(CN3CCCC3)C[C@H]21 (stereo in doubt)", "<", 4.70),
    ("CCCCCCC(C)(C)c1cc(O)c2c(c1)OC(C)(C)[C@H]1CC=C(CO)C[C@H]21 [211,007-000 HU-211, reference compound]", "=", 5.00),
    ("CCCCCCC(C)(C)c1cc(O)c2c(c1)OC(C)(C)[C@H]1CC=C(CN3CCOCC3)C[C@H]21", "=", 5.35),
    ("CCCCCCC(C)(C)c1cc(O)c2c(c1)OC(C)(C)[C@H]1CC=C(Cn3ccnc3)C[C@H]21 (single isomer, unassigned)", "=", 5.60),
    ("CCCCCCC(C)(C)c1cc(O)c2c(c1)OC(C)(C)[C@H]1CC=C(Cn3cccn3)C[C@H]21", "=", 6.46),
]

---

Attribute: pIC50
test-system: NMDA receptor
assay-notes: Radioligand binding: displacement of [3H]MK-801 from rat forebrain membranes
run-parameters: displacement of [3H]MK-801, rat forebrain membranes; read-out: NMDA BINDING IC50
pIC50: −log10 of the molar value.

# compound, result-qualifier, pIC50
rows = [
    ("CCCCCCC(C)(C)c1cc(O)c2c(c1)OC(C)(C)[C@H]1CC=C(COCC(O)CO)C[C@H]21 (stereo partly shown) [211,211-000]", "=", 5.34),
    ("CCCCCCC(C)(C)c1cc(O)c2c(c1)OC(C)(C)[C@H]1CC=C(CN3CCC(C)CC3)C[C@H]21 (single isomer, unassigned) [211,251-000]", "<", 4.00),
    ("CCCCCCC(C)(C)c1cc(O)c2c(c1)OC(C)(C)[C@H]1CC=C(CN3CCOCC3)C[C@H]21 [211,132-000]", "=", 5.35),
    ("CCCCCCC(C)(C)c1cc(O)c2c(c1)OC(C)(C)[C@H]1CC=C(CN(Cc3ccccc3)c3ccccc3)C[C@H]21 [211,255-000]", "<", 4.00),
]

---

Tested on: ear edema model in mice
assay-notes: Ear edema model
Assay type: in vivo
run-parameters: Mus musculus, Croton oil (CO) as inducer, IP
Attribute: ED50
readout-name: ED50 (µmol/kg)

# molecule, measured-number
data = [
    ("CCCCCCC(C)(C)c1cc(O)c2c(c1)OC(C)(C)[C@H]1CC=C(Cn3cccn3)C[C@H]21", 57),
    ("CCCCCCC(C)(C)c1cc(O)c2c(c1)OC(C)(C)[C@H]1CC=C(CN3CCOCC3)C[C@H]21", 70),
    ("CCCCCCC(C)(C)c1cc(O)c2c(c1)OC(C)(C)[C@H]1CC=C(Cn3ccnc3)C[C@H]21 (single isomer, unassigned)", 29),
    ("CCCCCCC(C)(C)c1cc(O)c2c(c1)OC(C)(C)[C@H]1CC=C(CN3CCCC3)C[C@H]21 (stereo in doubt)", 23),
    ("CCCCCCC(C)(C)c1cc(O)c2c(c1)OC(C)(C)[C@H]1CC=C(CN3CCN=C3SC)C[C@H]21", 34),
    ("CCCCCCC(C)(C)c1cc(O)c2c(c1)OC(C)(C)[C@H]1CC=C(CSc3ncc[nH]3)C[C@H]21 (single isomer, unassigned)", 28),
    ("CCCCCCC(C)(C)c1cc(O)c2c(c1)OC(C)(C)[C@H]1CC=C(CC#N)C[C@H]21", 104),
    ("CCCCCCC(C)(C)c1cc(O)c2c(c1)OC(C)(C)[C@H]1CC=C(CO)C[C@H]21 [211,007-000 HU-211, reference compound]", 25),
    ("CCCCCCC(C)(C)c1cc(O)c2c(c1)OC(C)(C)[C@H]1CC=C(C[S+](C)[O-])C[C@H]21 (stereo partly drawn)", 39),
]

---

Attribute: pIC50
test-system: NMDA receptor
assay-notes: Radioligand binding: displacement of [3H]MK-801 from rat forebrain membranes
run-parameters: displacement of [3H]MK-801, rat forebrain membranes; read-out: NMDA BINDING IC50
pIC50: −log10 of the molar value.

# compound, test-system, result-qualifier, pIC50
data = [
    ("CCCCCCC(C)(C)c1cc(O)c2c(c1)OC(C)(C)[C@H]1CC=C(CC#N)C[C@H]21", "NMDA receptor", "=", 5.10),
    ("CCCCCCC(C)(C)c1cc(O)c2c(c1)OC(C)(C)[C@H]1CC=C(CSc3ncc[nH]3)C[C@H]21 (single isomer, unassigned)", "NMDA receptor", "<", 4.30),
    ("CCCCCCC(C)(C)c1cc(O)c2c(c1)OC(C)(C)[C@H]1CC=C(CN3CCCC3)C[C@H]21 (stereo in doubt)", "NMDA receptor", "<", 4.70),
    ("CCCCCCC(C)(C)c1cc(O)c2c(c1)OC(C)(C)[C@H]1CC=C(Cc3cccs3)C[C@H]21", "NMDA receptor", "=", 4.49),
    ("CCCCCCC(C)(C)c1cc(O)c2c(c1)OC(C)(C)[C@H]1CC=C(CNC(C)=O)C[C@H]21", "NMDA receptor", "=", 5.22),
    ("CCCCCCC(C)(C)c1cc(O)c2c(c1)OC(C)(C)[C@H]1CC=C(CO)C[C@H]21 [211,007-000 HU-211, reference compound]", "NMDA receptor", "=", 5.00),
    ("CCCCCCC(C)(C)c1cc(O)c2c(c1)OC(C)(C)[C@H]1CC=C(Cn3cccn3)C[C@H]21", "NMDA receptor", "=", 6.46),
]

---

test-system: NMDA receptor
assay-notes: Radioligand binding: displacement of [3H]MK-801 from rat forebrain membranes
run-parameters: displacement of [3H]MK-801, rat forebrain membranes; read-out: NMDA BINDING IC50

# molecule, IC50
data = [
    ("CC(C)(C)c1cc(O)c2c(c1)OC(C)(C)[C@H]1CC=C(CO)C[C@H]21 [211,047-000]", "100 µM"),
    ("CCCCCCC(C)(C)c1cc(O)c2c(c1)OC(C)(C)[C@H]1CC=C(C[S+](C)[O-])C[C@H]21 (stereo partly shown) [211,041-000]", "6 µM"),
    ("CCCCCCC(C)(C)c1cc(O)c2c(c1)OC(C)(C)[C@H]1CC=C(CN3CC=CCC3)C[C@H]21 [211,145-000]", "13 µM"),
    ("CCCCCCC(C)(C)c1cc(O)c2c(c1)OC(C)(C)[C@H]1CC=C(Cc3ccccc3)C[C@H]21 [211,119-000]", "62 µM"),
    ("CCCCCCC(C)(C)c1cc(O)c2c(c1)OC(C)(C)[C@H]1CC=C(Cn3cnnc3)C[C@H]21 [211,103-000]", "3 µM"),
    ("CCCCCCC(C)(C)c1cc(O)c2c(c1)OC(C)(C)[C@H]1CC=C(CN3CCN=C3SC)C[C@H]21 [211,204-000]", "10 µM"),
    ("CCCCCCC(C)(C)c1cc(O)c2c(c1)OC(C)(C)[C@H]1CC=C(Cn3cncn3)C[C@H]21 [211,102-000]", "2.5 µM"),
]

---

Attribute: pIC50
test-system: NMDA receptor
assay-notes: Radioligand binding: displacement of [3H]MK-801 from rat forebrain membranes
run-parameters: displacement of [3H]MK-801, rat forebrain membranes; read-out: NMDA BINDING IC50
pIC50: −log10 of the molar value.
readout-name: pIC50

# compound, result
measured = [
    ("CCCCCCC(C)(C)c1cc(O)c2c(c1)OC(C)(C)[C@H]1CC=C(CN3CCC(N4CCCC4)CC3)C[C@H]21 [211,253-000]", "< 4.00"),
    ("CCCCCCC(C)(C)c1cc(O)c2c(c1)OC(C)(C)[C@H]1CC=C(CN3CC=CC3)C[C@H]21 [211,212-000]", 5.12),
    ("CCCCCCC(C)(C)c1cc(O)c2c(c1)OC(C)(C)[C@H]1CC=C(CN3CCNCC3)C[C@H]21 [211,133-000]", "< 4.00"),
    ("CCCCCCC(C)(C)c1cc(O)c2c(c1)OC(C)(C)[C@H]1CC=C(CN3CCNC(C)C3)C[C@H]21 (stereo partly shown) [211,134-000]", "< 4.00"),
    ("CCCCCCC(C)(C)c1cc(O)c2c(c1)OC(C)(C)[C@H]1CC=C(Cn3ccnc3)C[C@H]21 (single isomer, unassigned) [211,095-000]", 5.60),
    ("CCCCCCC(C)(C)c1cc(O)c2c(c1)OC(C)(C)[C@H]1CC=C(CN3CCC(N4CCCCC4)CC3)C[C@H]21 (single isomer, unassigned) [211,257-000]", "< 4.00"),
    ("CCCCCCC(C)(C)c1cc(O)c2c(c1)OC(C)(C)[C@H]1CC=C(CN3CCCCC3)C[C@H]21 (stereo in doubt) [211,159-000]", "< 4.70"),
]
